Reported TGI by item:
Tested on: HCT-15 colon
Assay: NCI tumour cell line growth inhibition, 48 h

[
  {
    "molecule": "NC(=O)c1nnsc1NN=O",
    "test.target": "HCT-15 colon",
    "TGI": "> 100 µM"
  },
  {
    "molecule": "O=C(/C=C/C(Cl)(Cl)Cl)Nc1ccc(Cl)cc1",
    "test.target": "HCT-15 colon",
    "TGI": "11.4 µM"
  },
  {
    "molecule": "C[N+]1(CCC(=O)c2ccccc2)CCC2CCC(C2)C1 (stereo unspecified)",
    "test.target": "HCT-15 colon",
    "TGI": "> 100 µM"
  },
  {
    "molecule": "O=C(O)C(O)C(O)C(O)C(O)C(=O)O (stereo unspecified)",
    "test.target": "HCT-15 colon",
    "TGI": "> 100 µM"
  },
  {
    "molecule": "CC1=CC(O)C(C(O)(C(F)(F)F)C(F)(F)F)C(C)(C)C1 (stereo unspecified)",
    "test.target": "HCT-15 colon",
    "TGI": "> 10 µM"
  },
  {
    "molecule": "C[C@@H](NC(=O)c1ncnc(N)c1Cl)c1ncc(C(=O)Nc2cc(C(F)(F)F)c(Cl)cn2)s1",
    "test.target": "HCT-15 colon",
    "TGI": "> 100 µM"
  },
  {
    "molecule": "COC(=O)C1=C(OC(=O)/C=C/c2ccc(Cl)cc2)C(C(=O)OC)[C@]2(O)[C@@H](C(=O)OC)[C@H]1C[C@@H](c1ccccc1)[C@@H]2C(=O)OC (stereo partly specified)",
    "test.target": "HCT-15 colon",
    "TGI": "> 47.1 µM"
  },
  {
    "molecule": "O=c1cc(NNc2ccccc2F)[nH]c(=O)[nH]1",
    "test.target": "HCT-15 colon",
    "TGI": "29.6 µM"
  },
  {
    "molecule": "COc1cc2c(cc1O)CN1CCC23C=C[C@@H](O)CC13 (stereo partly specified)",
    "test.target": "HCT-15 colon",
    "TGI": "> 100 µM"
  },
  {
    "molecule": "CC1=C[C@@H](C)C[C@]2(C)CC[C@H](O2)[C@]23CC[C@](CO)(C[C@H](O2)[C@@H]2O[C@@](C)(CC2=O)[C@@H](O)[C@H]2CC[C@@]4(CCC[C@@H](O4)[C@H](C)C(=O)O[C@H]4C[C@H]([C@]5(O)OCC[C@H](C)[C@@H]5O)O[C@H]4C=C1)O2)O3",
    "test.target": "HCT-15 colon",
    "TGI": "> 10 µM"
  },
  {
    "molecule": "Cc1nc(C)c(N2CCN(C(=O)O)CC2)c(=O)[nH]1",
    "test.target": "HCT-15 colon",
    "TGI": "> 100 µM"
  },
  {
    "molecule": "CN(C)C(=O)NC(=S)N(C)C",
    "test.target": "HCT-15 colon",
    "TGI": "> 100 µM"
  },
  {
    "molecule": "OCCCSCCO",
    "test.target": "HCT-15 colon",
    "TGI": "> 100 µM"
  },
  {
    "molecule": "COc1cccc(/C=N/[N-]C(N)=O)c1[O-].[Ni+2].[OH3+]",
    "test.target": "HCT-15 colon",
    "TGI": "1.17 µM"
  },
  {
    "molecule": "CCN(CC)CCC1(C2CCCCC2)CCC(=O)NC1=O (stereo unspecified)",
    "test.target": "HCT-15 colon",
    "TGI": "> 100 µM"
  },
  {
    "molecule": "O=C(CO[N+](=O)[O-])OC/C=C/c1ccccc1",
    "test.target": "HCT-15 colon",
    "TGI": "> 100 µM"
  },
  {
    "molecule": "C(=Nc1cnc2ccccc2c1)c1ccc2ccccc2n1",
    "test.target": "HCT-15 colon",
    "TGI": "> 100 µM"
  },
  {
    "molecule": "COc1cc(C2c3cc4c(cc3OC(NCCc3ccccc3)C2C)OCO4)cc(OC)c1OC (stereo unspecified)",
    "test.target": "HCT-15 colon",
    "TGI": "> 40.9 µM"
  },
  {
    "molecule": "CCN(CC)CCC(CNc1ccnc2cc(Cl)ccc12)c1ccccc1 (stereo unspecified)",
    "test.target": "HCT-15 colon",
    "TGI": "20.8 µM"
  },
  {
    "molecule": "CCCCOCOc1ccccc1P1(=O)COc2ccccc2OC1",
    "test.target": "HCT-15 colon",
    "TGI": "> 100 µM"
  },
  {
    "molecule": "CN(NC1OC(CO)C(O)C(O)C1O)c1ccccc1 (stereo unspecified)",
    "test.target": "HCT-15 colon",
    "TGI": "> 100 µM"
  },
  {
    "molecule": "COC(=O)c1cc(NC(=O)c2cc(NC(=O)Cc3c[nH]c4ccccc34)cn2C)cn1C",
    "test.target": "HCT-15 colon",
    "TGI": "> 100 µM"
  },
  {
    "molecule": "CN=C(N)N=Nc1c(O)[nH]c2ccccc12",
    "test.target": "HCT-15 colon",
    "TGI": "> 100 µM"
  },
  {
    "molecule": "O=C(N/N=C(/c1nc2ccc([N+](=O)[O-])cc2[nH]c1=O)C(O)c1ccc([N+](=O)[O-])cc1)c1ccncc1 (stereo unspecified)",
    "test.target": "HCT-15 colon",
    "TGI": "> 100 µM"
  },
  {
    "molecule": "COc1cc(C(C[N+](=O)[O-])SC(C)=O)ccc1OCc1ccccc1 (stereo unspecified)",
    "test.target": "HCT-15 colon",
    "TGI": "9.11 µM"
  },
  {
    "molecule": "O=C1c2cccnc2C(=O)c2c1c(C(=O)NCCn1ccnc1)c1ccccn21",
    "test.target": "HCT-15 colon",
    "TGI": "15.1 µM"
  },
  {
    "molecule": "CCOC(=O)c1c(NC(=O)c2ccccc2)sc2c3c(ccc12)OCN(C)C3",
    "test.target": "HCT-15 colon",
    "TGI": "2.51 µM"
  },
  {
    "molecule": "Cc1cc(S(=O)(=O)Nc2n[nH]c(Nc3ccc4ccccc4c3)n2)c(S)cc1Cl",
    "test.target": "HCT-15 colon",
    "TGI": "> 100 µM"
  },
  {
    "molecule": "CCOC(=O)C(/C(=N\\NC(=O)OC)C(=O)Nc1cc(OC)ccc1OC)c1cnc2ccccc2n1 (stereo unspecified)",
    "test.target": "HCT-15 colon",
    "TGI": "> 100 µM"
  },
  {
    "molecule": "COc1ccccc1-n1c(NN)nc2ccc(Br)cc2c1=O",
    "test.target": "HCT-15 colon",
    "TGI": "> 100 µM"
  },
  {
    "molecule": "COc1cccc(/C=C/c2ccnc3ccccc23)c1OC",
    "test.target": "HCT-15 colon",
    "TGI": "> 10 µM"
  }
]
